Hey, just so you know, these numbers are from patent US10322097B2.

- Test system: DLD-1 Bax-Bak-/- colon cancer cells
- test protocol: MTT cytotoxicity assay, DLD-1 Bax-Bak-/-
- Assay type: cell-based
- setup conditions: Homo sapiens, DLD-1, 72 h, read-out: IC50 DLD-1 Bax-Bak-/- colon cancer cells
measure: IC50

INPUT: Which IC50 value is on record for CC1=C(O)C(=O)C=C2C1=CC=C1[C@@]2(C)CC[C@@]2(C)[C@@H]3C[C@](C)(C(=O)O)CC[C@]3(C)CC[C@]12C ?
OUTPUT: 0.184 µM

###

- System: DLD-1 Bax-Bak-/- colon cancer cells
- test protocol: MTT cytotoxicity assay, DLD-1 Bax-Bak-/-
- Format: cell-based
- setup conditions: IC50 DLD-1 Bax-Bak-/- divided by IC50 DLD-1 Bax-Bak+/+
Entries and their Resistant Factor

N.N.[Cl][Pt][Cl] [Cisplatin, cisplatin] | 1.84
CN[C@@H]1C[C@H]2O[C@@](C)([C@@H]1OC)n1c3ccccc3c3c4c(c5c6ccccc6n2c5c31)C(=O)NC4 [Staurosporine, staurosporine] | 3.34
CC1=C(O)C(=O)C=C2C1=CC=C1[C@@]2(C)CC[C@@]2(C)[C@@H]3C[C@](C)(C(=O)O)CC[C@]3(C)CC[C@]12C [Celastrol, celastrol] | 0.32
COc1cccc2c1C(=O)c1c(O)c3c(c(O)c1C2=O)C[C@@](O)(C(=O)CO)C[C@@H]3O[C@H]1C[C@H](N)[C@H](O)[C@H](C)O1 [Doxorubicin, doxorubicin] | 10.31
COc1cc([C@@H]2c3cc4c(cc3[C@@H](O[C@@H]3O[C@@H]5CO[C@@H](C)O[C@H]5[C@H](O)[C@H]3O)[C@H]3COC(=O)[C@H]23)OCO4)cc(OC)c1O [Etoposide, etoposide] | 17.12

Turning to the following compound.
INPUT: Which Resistant Factor value is on record for CC(=O)O[C@H]1C(=O)[C@@]2(C)[C@H]([C@H](OC(=O)c3ccccc3)[C@]3(O)C[C@H](OC(=O)[C@H](O)[C@@H](NC(=O)c4ccccc4)c4ccccc4)C(C)=C1C3(C)C)[C@]1(OC(C)=O)CO[C@@H]1C[C@@H]2O [Taxol, paclitaxel (taxol)] ?
OUTPUT: >23.2

###

- System: MDA-MB-231/BCRP breast cancer cells
- test protocol: MTT cytotoxicity assay, MDA-MB-231/BCRP
- Assay type: cell-based
- setup conditions: MDA-MB-231/BCRP, 72 h; MTT, 3 days
measure: pIC50
Friendly reminder that pIC50 comes from taking -log10 of the concentration in mol/L.

INPUT: Which pIC50 value is on record for CC1=C(O)C(=O)C=C2C1=CC=C1[C@@]2(C)CC[C@@]2(C)[C@@H]3C[C@](C)(C(=O)O)CC[C@]3(C)CC[C@]12C ?
OUTPUT: 5.21

###

- Tested on: MCF-7 (Breast) taxol resistant cancer cells
- test protocol: MTT cytotoxicity assay, MCF-7 taxol resistant
- Assay type: cell-based, human
- setup conditions: Homo sapiens, MCF7, 72 h, read-out: IC50 MCF-7 (Breast) (Taxol resistant)
measure: IC50 (nM)
Answer in nM, number only, no unit symbol.

INPUT: Which IC50 value is on record for CC1=C(O)C(=O)C=C2C1=CC=C1[C@@]2(C)CC[C@@]2(C)[C@@H]3C[C@](C)(C(=O)O)CC[C@]3(C)CC[C@]12C ?
OUTPUT: 730
